This listing pairs compounds with measured pKi.
# TARGET: N100A PafA (Elizabethkingia meningoseptica, UniProt Q9KJX5, N100A)
# PROCEDURE_DETAILS: biochemical
# CONDITION_SET: pH 8.0, subsaturating me-pNPP
pKi: −log10 of the molar value.
METRIC: pKi

{"COMPOUND": "O=P(O)(O)O [Pi, inorganic phosphate]", "TARGET": "N100A PafA (Elizabethkingia meningoseptica, UniProt Q9KJX5, N100A)", "MEASURED_RESULT": 2.89}
{"COMPOUND": "[O]=[V]([OH])([OH])[OH] [vanadate]", "TARGET": "N100A PafA (Elizabethkingia meningoseptica, UniProt Q9KJX5, N100A)", "MEASURED_RESULT": 3.72}
{"COMPOUND": "[O]=[W](=[O])([OH])[OH] [tungstate]", "TARGET": "N100A PafA (Elizabethkingia meningoseptica, UniProt Q9KJX5, N100A)", "MEASURED_RESULT": 3.24}
